# GI50 per record follows
test system: SK-MEL-28 melanoma; experiment: NCI tumour cell line growth inhibition, 48 h

CS(=O)(=O)Nc1cc(-c2ccc3ncnc(Nc4ccc5c(cnn5Cc5ccccc5F)c4)c3c2)cnc1Cl: 0.771 µM
COc1ccc(/C=C/C(=O)c2cc3c(N)c(C(=O)Nc4ccccc4)sc3nc2C)cc1: 2.16 µM
O=C(N/N=C\c1ccc(N(CCCl)CCCl)cc1Cl)c1cccnc1: 26.5 µM
CC1=C(C(=O)Nc2ccc(F)c(Cl)c2)C(c2cccc(Oc3ccccc3)c2)NC(=O)N1 (configuration not stated): 14.7 µM
COc1cc(/C=C/C(=O)c2c(C)n([O-])c3ccc(Cl)cc3[n+]2=O)cc(OC)c1OC: > 100 µM
O=C1/C(=C/c2ccc(Cl)cc2)COc2ccc(O)c(O)c21: 1.53 µM

Turning now to a further record.
Fill in the recorded GI50 for this compound, with SK-MEL-28 melanoma as test system: CCCCCCCCCCCC[n+]1ccc(C(N)=O)cc1
4.33 µM

----------
system: ACHN renal; experiment: NCI tumour cell line growth inhibition, 48 h
Where a SMILES comes first, the peptide text is derived from it. The star is where a group is joined. Cbz = O=C(OCc1ccccc1)*
Quantity name: TGI

As a guide, the following entries are already answered.
Clc1ccc(-c2nc3ccc(C45CC6CC(CC(C6)C4)C5)cc3[nH]2)cc1: > 100 µM
CCN(CC)CCC(=O)c1ccc(Oc2ccccc2)cc1: 29.3 µM
CCOC(=O)C(CC(=O)OC)NC(=O)C(CC(=O)OC)NC(=O)C(CC(=O)OC)NC(=O)C(CC(=O)OC)NC(=O)OCc1ccccc1 (centres undefined) (Cbz-D(OMe)D(OMe)D(OMe)D(OMe)-OEt; configuration not given here): > 100 µM
NC(CCSC(F)F)C(=O)O (centres undefined): > 100 µM
FC(F)(F)C1(C(F)(F)F)O[SiH]2(OC(C(F)(F)F)(C(F)(F)F)c3ccccc32)c2ccccc21: 78.8 µM
Cc1ccc(S(=O)(=O)NC2=NS(=O)(=O)c3cc(C)c(Cl)cc3S2)cc1: > 100 µM

Give its TGI value. Item: C/C(=N\O)C(CN1CCCCC1)C(c1ccccc1)c1c(O)c2ccccc2oc1=O (centres undefined)
> 100 µM

# get_value(readout='TGI', item= Cc1ccc(S(=O)(=O)c2c3[nH]c4ccccc4nc3n3c2nc2ccccc23)cc1 )
> 100 µM

What value of TGI has been reported for the following compound? Oc1ccc(N=Nc2ccc(N=Nc3ccccc3)cc2)cc1
5.59 µM

----------
test system: SK-OV-3 ovarian; test: NCI tumour cell line growth inhibition, 48 h
Below, each entry is listed with its recorded GI50.

COc1cc(/C=C/C(=O)c2c(C)n([O-])c3ccc(Cl)cc3[n+]2=O)cc(OC)c1OC: 34.6 µM

Quick one: GI50 for O=C(N/N=C\c1ccc(N(CCCl)CCCl)cc1Cl)c1cccnc1 ?
26.6 µM

Fill in: GI50 of OCCNCCNc1c2ccccc2nc2oc3ccccc3c12 is ___
13.1 µM

May I ask what GI50 has been recorded for O=C1/C(=C/c2ccc(Cl)cc2)COc2ccc(O)c(O)c21 ?
2.49 µM

// returns reported GI50 for input C[CH2][Sn]([CH2]C)([O]C(=O)c1cccc(F)c1)[O][Sn]([CH2]C)([CH2]C)[O]C(=O)c1cccc(F)c1
> 100 µM
